ASSAY_TARGET: Bcl-2-like protein 1 (Homo sapiens, UniProt Q07817, E96A)
Sequence (Q07817 whole entry E96A): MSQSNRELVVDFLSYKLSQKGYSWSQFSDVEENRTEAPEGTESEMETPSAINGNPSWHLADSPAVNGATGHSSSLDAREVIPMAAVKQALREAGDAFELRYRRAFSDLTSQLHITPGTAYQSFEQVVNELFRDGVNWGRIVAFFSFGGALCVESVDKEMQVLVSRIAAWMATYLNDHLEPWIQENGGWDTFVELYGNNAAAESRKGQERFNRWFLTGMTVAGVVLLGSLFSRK
ASSAY_REMARKS: Binding affinity to human Bcl-XL E96A mutant by surface plasma resonance based biosensor system
PROPERTY_MEASURED: Kd (µM)

| COMPOUND | ASSAY_TARGET | PROPERTY_MEASURED | U | VALUE_OBSERVED |
| --- | --- | --- | --- | --- |
| COc1ccccc1C1C2=C(N=c3s/c(=C\c4cccc(OCC(=O)O)c4)c(=O)n31)c1ccccc1CC2 (stereo unspecified) | Bcl-2-like protein 1 (Homo sapiens, UniProt Q07817, E96A) | Kd | µM | 34.8 |

---

ASSAY_REMARKS: Cytotoxicity against human Bel7404 cells after 48 hrs by MTT assay
MEASUREMENT_CONDITIONS: BEL-7404, 48 h
pEC50: −log10 of the molar value.

| COMPOUND | QUALIFIER_OPERATOR | pEC50 |
| --- | --- | --- |
| O=C(O)c1cccc(-c2ccc(/C=c3\sc4n(c3=O)C(c3ccccc3F)C3=C(N=4)c4ccccc4CC3)o2)c1 (stereo not drawn) | < | 3.30 |
| O=C(O)c1cccc(-c2ccc(/C=c3\sc4n(c3=O)C(c3cccc(F)c3)C3=C(N=4)/C(=C/c4cccc(F)c4)CCC3)o2)c1 (stereo not drawn) | = | 5.42 |
| O=C(O)COc1cccc(/C=c2\sc3n(c2=O)C(c2cccc(F)c2)C2=C(N=3)/C(=C/c3cccc(F)c3)CCC2)c1 (stereo not drawn) | = | 5.37 |
| O=C(O)c1cccc(-c2ccc(/C=c3\sc4n(c3=O)C(c3cccc(F)c3)C3=C(N=4)c4ccccc4CC3)o2)c1 (stereo not drawn) | = | 4.29 |
| COc1ccc(C2C3=C(N=c4s/c(=C\c5ccc(OCc6cccc(C(=O)O)c6)c(OC)c5)c(=O)n42)c2ccccc2CC3)cc1 (stereo not drawn) | = | 5.14 |
| COc1cccc(C2C3=C(N=c4s/c(=C\c5ccc(-c6cccc(C(=O)O)c6)o5)c(=O)n42)c2ccccc2CC3)c1 (stereo not drawn) | < | 4.00 |
| O=C(O)COc1cccc(/C=c2\sc3n(c2=O)C(c2ccccc2)C2=C(N=3)c3ccccc3CC2)c1 (stereo not drawn) | = | 5.11 |
| COc1ccccc1C1C=C(c2ccccc2)N=c2s/c(=C\c3cccc(OCC(=O)O)c3)c(=O)n21 (stereo not drawn) | < | 3.30 |

---

Tested on: OVCAR-3
ASSAY_REMARKS: Cytotoxicity against human OVCAR-3 cells after 48 hrs by MTT assay
MEASUREMENT_CONDITIONS: OVCAR-3, 48 h
pEC50: −log10 of the molar value.
Measured pEC50 of individual entries

| COMPOUND | QUALIFIER_OPERATOR | pEC50 |
| --- | --- | --- |
| O=C(O)c1cccc(-c2ccc(/C=c3\sc4n(c3=O)C(c3cccc([N+](=O)[O-])c3)C3=C(N=4)c4ccccc4CC3)o2)c1 (stereo unspecified) | = | 4.57 |
| COc1ccccc1C1C2=C(N=c3s/c(=C\c4ccccc4OCC(=O)O)c(=O)n31)c1ccccc1CC2 (stereo unspecified) | = | 5.35 |
| COc1ccccc1C1C2=C(N=c3sc(=Cc4ccc(C=CC(=O)O)cc4)c(=O)n31)c1ccccc1CC2 (stereo unspecified) | = | 5.48 |
| O=C(O)COc1cccc(/C=c2\sc3n(c2=O)C(c2cccc(F)c2)C2=C(N=3)c3ccccc3CC2)c1 (stereo unspecified) | = | 5.55 |
| O=C(O)c1cccc(-c2ccc(/C=c3\sc4n(c3=O)C(c3ccco3)C3=C(N=4)c4ccccc4CC3)o2)c1 (stereo unspecified) | < | 4.00 |
| COc1ccccc1C1C2=C(N=c3s/c(=C\c4ccc(-c5cccc(C(=O)O)c5)o4)c(=O)n31)c1ccccc1CC2 (stereo unspecified) | = | 5.04 |
| COc1ccccc1C1C2=C(N=c3s/c(=C\c4cccc(OCC(=O)O)c4)c(=O)n31)c1ccccc1CC2 (stereo unspecified) | = | 5.81 |
| O=C(O)c1cccc(-c2ccc(/C=c3\sc4n(c3=O)C(c3ccccc3)C3=C(N=4)c4ccccc4CC3)o2)c1 (stereo unspecified) | = | 4.72 |
| O=C(O)COc1cccc(/C=c2\sc3n(c2=O)C(c2ccccc2)C2=C(N=3)c3ccccc3CC2)c1 (stereo unspecified) | = | 5.56 |
| COc1ccccc1C1C2=C(N=c3s/c(=C\c4ccc(OCC(=O)O)cc4)c(=O)n31)c1ccccc1CC2 (stereo unspecified) | = | 5.55 |
| COc1ccccc1C1C2=C(N=c3s/c(=C\c4ccc(-c5cccc(C(=O)O)c5)cc4)c(=O)n31)c1ccccc1CC2 (stereo unspecified) | = | 5.14 |
| O=C(O)COc1cccc(/C=c2\sc3n(c2=O)C(c2cccc4ccccc24)C2=C(N=3)c3ccccc3CC2)c1 (stereo unspecified) | = | 5.66 |
| O=C(O)c1cccc(-c2ccc(/C=c3\sc4n(c3=O)C(c3ccccc3F)C3=C(N=4)c4ccccc4CC3)o2)c1 (stereo unspecified) | = | 4.12 |
| O=C(O)COc1cccc(/C=c2\sc3n(c2=O)C(c2cccc(F)c2)C2=C(N=3)/C(=C/c3cccc(F)c3)CCC2)c1 (stereo unspecified) | = | 5.49 |
| O=C(O)c1cccc(-c2ccc(/C=c3\sc4n(c3=O)C(c3cccc(F)c3)C3=C(N=4)c4ccccc4CC3)o2)c1 (stereo unspecified) | = | 4.92 |
| COc1ccc(C2C3=C(N=c4s/c(=C\c5ccc(OCc6cccc(C(=O)O)c6)c(OC)c5)c(=O)n42)c2ccccc2CC3)cc1 (stereo unspecified) | = | 4.93 |

Taken from ChEMBL document CHEMBL1157133.
